System: MAP kinase cascade activation
Assay: Reporter activity reflecting MAP kinase cascade activation, corrected using an internal control (Elk1-GAL4 luciferase reporter in 293-EBNA cells)
Format: cell-based, human
Settings: 50 ng/well expression plasmid; 293-EBNA cells; 24 hours
Readout Label: Reporter activity corrected with internal control, as a factor of null vector (S/B value)
No unit in the answer, please; the number alone is enough.

As a guide, the following entries are already answered.
Molecule	Observed Value
148 (protein, listed as Homo sapiens) MNHIVQTFSPVNSGQPPNYEMLKEEQEVAMLGAPHNPAPPTSTVIHIRSETSVPDHVVWSLFNTLFMNTCCLGFIAFAYSVKSRDRKMVGDVTGAQAYASTAKCLNIWALILGIFMTILLIIIPVLVVQAQR	3.4
50 (protein, listed as Homo sapiens) MAKERRRAVLELLQRPGNARCADCGAPDPDWASYTLGVFICLSCSGIHRNIPQVSKVKSVRLDAWEEAQVEFMASHGNDAARARFESKVPSFYYRPTPSDCQLLREQWIRAKYERQEFIYPEKQEPYSAGYREGFLWKRGRDNGQFLSRKFVLTEREGALKYFNRNDAKEPKAVMKIEHLNATFQPAKIGHPHGLQVTYLKDNSTRNIFIYHEDGKEIVDWFNALRAARFHYLQVAFPGASDADLVPKLSRNYLKEGYMEKTGPKQTEGFRKRWFTMDDRRLMYFKDPLDAFARGEVFIGSKESGYTVLHGFPPSTQGHHWPHGITIVTPDRKFLFACETESDQREWVAAFQKAVDRPMLPQEYAVEAHFKHKP	4.3

Switching to the query record.
-- ask Look up Reporter activity corrected with internal control, as a factor of null vector (S/B value) of 4 (protein, listed as Homo sapiens) MSHEKSFLVSGDNYPPPNPGYPGGPQPPMPPYAQPPYPGAPYPQPPFQPSPYGQPGYPHGPSPYPQGGYPQGPYPQGGYPQGPYPQEGYPQGPYPQGGYPQGPYPQSPFPPNPYGQPQVFPGQDPDSPQHGNYQEEGPPSYYDNQDFPATNWDDKSIRQAFIRKVFLVLTLQLSVTLSTVSVFTFVAEVKGFVRENVWTYYVSYAVFFISLIVLSCCGDFRRKHPWNLVALSVLTASLSYMVGMIASFYNTEAVIMAVGITTAVCFTVVIFSMQTRYDFTSCMGVLLVSMVVLFIFAILCIFIRNRILEIVYASLGALLFTCFLAVDTQLLLGNKQLSLSPEEYVFAALNLYTDIINIFLYILTIIGRAKE and report it.
-- reply 4.1
